Sourced from patent US12139487B2

# tested-target: BRG-1 (Homo sapiens, UniProt P51532)
# Sequence (P51532 whole entry): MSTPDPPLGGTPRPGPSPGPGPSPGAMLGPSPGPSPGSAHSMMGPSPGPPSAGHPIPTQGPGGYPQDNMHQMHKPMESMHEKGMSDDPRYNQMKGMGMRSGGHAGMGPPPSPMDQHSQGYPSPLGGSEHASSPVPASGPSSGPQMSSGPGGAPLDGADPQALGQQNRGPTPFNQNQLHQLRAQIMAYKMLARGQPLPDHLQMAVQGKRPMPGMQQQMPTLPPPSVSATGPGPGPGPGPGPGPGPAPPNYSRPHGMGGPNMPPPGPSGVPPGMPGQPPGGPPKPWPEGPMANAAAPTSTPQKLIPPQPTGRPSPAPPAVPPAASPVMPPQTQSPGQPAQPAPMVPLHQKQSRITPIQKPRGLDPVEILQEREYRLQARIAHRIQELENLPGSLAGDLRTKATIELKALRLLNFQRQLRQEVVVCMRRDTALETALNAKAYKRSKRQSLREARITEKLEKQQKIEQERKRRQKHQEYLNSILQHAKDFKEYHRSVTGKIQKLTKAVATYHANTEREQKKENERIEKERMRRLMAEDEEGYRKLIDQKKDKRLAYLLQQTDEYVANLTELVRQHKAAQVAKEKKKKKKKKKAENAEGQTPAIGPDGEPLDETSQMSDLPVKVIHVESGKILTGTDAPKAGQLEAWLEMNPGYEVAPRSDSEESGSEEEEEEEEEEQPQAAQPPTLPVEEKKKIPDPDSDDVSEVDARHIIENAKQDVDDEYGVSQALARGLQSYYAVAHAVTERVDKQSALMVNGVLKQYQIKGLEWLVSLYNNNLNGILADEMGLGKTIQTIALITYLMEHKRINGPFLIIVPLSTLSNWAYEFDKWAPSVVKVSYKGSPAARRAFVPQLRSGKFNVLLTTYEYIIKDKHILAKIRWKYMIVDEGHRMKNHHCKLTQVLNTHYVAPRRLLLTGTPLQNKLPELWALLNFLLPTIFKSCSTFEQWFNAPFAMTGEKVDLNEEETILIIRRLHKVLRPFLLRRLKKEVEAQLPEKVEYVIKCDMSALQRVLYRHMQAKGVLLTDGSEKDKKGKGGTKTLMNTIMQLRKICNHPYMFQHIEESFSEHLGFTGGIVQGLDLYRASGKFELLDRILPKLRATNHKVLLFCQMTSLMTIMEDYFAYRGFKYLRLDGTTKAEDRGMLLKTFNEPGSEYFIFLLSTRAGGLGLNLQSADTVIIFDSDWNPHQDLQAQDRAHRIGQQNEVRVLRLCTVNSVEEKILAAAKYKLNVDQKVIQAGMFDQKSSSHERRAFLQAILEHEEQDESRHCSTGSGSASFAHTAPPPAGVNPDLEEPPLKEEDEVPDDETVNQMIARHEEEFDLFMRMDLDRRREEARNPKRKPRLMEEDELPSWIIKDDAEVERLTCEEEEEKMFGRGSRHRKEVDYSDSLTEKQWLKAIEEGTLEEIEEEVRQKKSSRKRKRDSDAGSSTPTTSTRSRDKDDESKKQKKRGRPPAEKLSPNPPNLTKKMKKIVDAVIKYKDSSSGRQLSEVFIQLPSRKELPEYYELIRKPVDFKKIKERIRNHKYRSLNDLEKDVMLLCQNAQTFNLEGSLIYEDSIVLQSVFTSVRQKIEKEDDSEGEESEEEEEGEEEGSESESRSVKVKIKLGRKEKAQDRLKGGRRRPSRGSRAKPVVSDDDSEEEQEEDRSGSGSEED
Please respond with reported pIC50 for every item in the list.
Give bare numbers, as −log10 of the molar value.

Q) Specify pIC50 for O=C(NCc1cc2nc(N3CCOc4cc(C(F)(F)F)cnc43)ccc2cn1)c1cc(F)c2c(c1)S(=O)(=O)[C@@H](F)CCO2 [Compound 265] and stop.
A) 7.00

Kindly give each listed record's pIC50.
1. O=C(NCc1cc2nc(N3CCOc4c(N5CC(F)C5)ccnc43)ccc2cn1)c1cc(F)c2c(c1)S(=O)(=O)[C@@H](F)CCO2 [Compound 285]
2. COCCOc1ccc2c(c1)N(c1ccc3cnc(CNC(=O)c4cc(F)c5c(c4)S(=O)(=O)[C@@H](F)CCO5)cc3n1)CCO2 [Compound 35]
3. C#Cc1cc(C(=O)NCc2cc3nc(-c4cccc(N5C[C@@H](C)O[C@@H](C)C5)n4)ccc3cn2)cc2c1OCC[C@@H](F)S2(=O)=O [Compound 315]

A)
1: 7.02; 2: 7.63; 3: 5.96

----------
# Tested on: BRM-dependent transcription (BRG1 mutant lung cancer cell line A549)
# test-details: BRM-dependent transcription, MMTV luciferase reporter in BRG1 mutant A549 cells
# Format: cell-based
# condition-set: MMTV luciferase reporter cell lines, selectivity BRG1/BRM, Table 11
# Procedure: The potential inhibitory effects of compounds on BRG1 and BRM dependent transcription was study by testing the activity of against the BRG1 mutant lung cancer cell line A549 and a MDA cell line with BRM removed by CRISPR. […] Luciferase transcription was induced by dexamethasone in the presence of compound at different concentrations and luminescence was measured using a plate reader 6 hours after stimulation.
Please go through the items and note down their Ratio (MDA-MMTV IC50 (μM) divided by A549-MMTV IC50 (μM)).
Answers are plain numbers.

Known results for compounds:
Q) Lab note: record Ratio (MDA-MMTV IC50 (μM) divided by A549-MMTV IC50 (μM)) of CCOc1nc([C@@H](F)CF)ccc1-c1ccc2cnc(CNC(=O)c3cc(Cl)c4c(c3)S(=O)(=O)[C@@H](F)COC4)cc2n1 [Compound 516] tested on BRM-dependent transcription (BRG1 mutant lung cancer cell line A549).
A) 31.51

Q) Consider the compound O=C(NCc1cc2nc(N3CCC(F)(F)c4cc(C5CC5)cnc43)ccc2cn1)c1cc(F)c2c(c1)S(=O)(=O)[C@@H](F)CCO2 [Compound 425] tested on BRM-dependent transcription (BRG1 mutant lung cancer cell line A549); state its Ratio (MDA-MMTV IC50 (μM) divided by A549-MMTV IC50 (μM)).
A) 24.38

Q) Look up and report Ratio (MDA-MMTV IC50 (μM) divided by A549-MMTV IC50 (μM)), with BRM-dependent transcription (BRG1 mutant lung cancer cell line A549) as system, for C[C@@H]1CCN1c1cnc2c(-c3ccc4cnc(CNC(=O)c5cc(F)c6c(c5)S(=O)(=O)[C@@H](F)COC6)cc4n3)cccc2c1 [Compound 496]
A) 21.18

Q) Fetch value of Ratio (MDA-MMTV IC50 (μM) divided by A549-MMTV IC50 (μM)) on BRM-dependent transcription (BRG1 mutant lung cancer cell line A549) for [2H]C([2H])([2H])C([2H])([2H])Oc1nc([C@H](F)CF)ccc1-c1ccc2cnc(CNC(=O)c3cc(C(F)F)c4c(c3)S(=O)(=O)[C@@H](F)COC4)cc2n1 [Compound 478] .
A) 33.55

Give me Ratio (MDA-MMTV IC50 (μM) divided by A549-MMTV IC50 (μM)) for each of these compounds, listed below.
1. COc1ccccc1-c1ccc2cnc(CNC(=O)c3cc(F)c4c(c3)S(=O)(=O)[C@@H](F)CCO4)cc2n1 [Compound 338]
2. [2H]C([2H])([2H])C([2H])([2H])Oc1nc(C(F)F)ccc1-c1ccc2cnc(CNC(=O)c3cc(Br)c4c(c3)S(=O)(=O)[C@@H](F)COC4)cc2n1 [Compound 486]
3. O=C(NCc1cc2nc(-c3cccc(C(F)(F)F)n3)ccc2cn1)c1cc(F)c2c(c1)S(=O)(=O)[C@@H](F)CCO2 [Compound 335]
4. O=C(NCc1cc2nc(-c3ccc(OC(F)F)c(C4CC4)n3)ccc2cn1)c1cc(C(F)F)c2c(c1)S(=O)(=O)[C@@H](F)COC2 [Compound 415]
5. CCOc1nc([C@@H](F)CF)ccc1-c1ccc2cnc(CNC(=O)c3cc(Cl)c4c(c3)S(=O)(=O)[C@@H](F)COC4)cc2n1 [Compound 475]
6. CCOc1nc([C@H](F)CF)ccc1-c1ccc2cnc(CNC(=O)c3cc(Cl)c4c(c3)S(=O)(=O)[C@@H](F)COC4)cc2n1 [Compound 481]

A)
21.68
33.87
30.32
35.99
37.21
50.79
